system: SR leukemia; assay: NCI-60 one-dose screen, 48 h (100 = growth as untreated, 0 = no growth, -100 = all killed); conditions: 10 µM unless noted
Compounds without any hit were thinned out: in the full panel of roughly 83,000, 20% have a hit.
Parameter: growth. Scope: all listed entries.
Report the figure in % without appending any unit label.

Reference set (4 entries):
>  <CHEMICAL_SMILES>
Oc1cccnc1CN1CCOCC1

>  <growth, %>
103

$$$$
>  <CHEMICAL_SMILES>
Cc1cc(-c2ccc(N=Nc3c(C)nn(-c4ccc(S(=O)(=O)O)cc4)c3O)c(C)c2)ccc1N=Nc1ccc(O)c(C(=O)O)c1

>  <growth, %>
86

$$$$
>  <CHEMICAL_SMILES>
COC(=O)c1ccccc1Cl

>  <growth, %>
96.4

$$$$
>  <CHEMICAL_SMILES>
O=C(O)c1ccc2c3ccc(C(=O)O)c4c(C(=O)O)ccc(c5ccc(C(=O)O)c1c25)c43

>  <growth, %>
104

$$$$

// next item, growth requested
Task: Return the recorded growth value; entry: O=[N+]([O-])c1cccc(N=Cc2ccccc2)c1
Output: 88.4

----------
system: RXF 393 renal; experiment: NCI-60 one-dose screen, 48 h; conditions: 10 µM unless noted
About 83,000 compounds went through this panel and 20% of them were active in at least one assay; those are over-represented in the sample as a whole. Activity calls are given as the source filed them. Rule for the calls: active = growth percent below 10; inactive = the rest.
Respond only with the outcome that fits, drawn from y = active, n = inactive

>  <COMPOUND>
CCOC(=O)c1csc(N)n1

>  <GROUP>
n

$$$$
>  <COMPOUND>
NC(=O)Cc1nc(O)cc(=O)[nH]1

>  <GROUP>
n

$$$$
>  <COMPOUND>
O=C(O)COc1ccccc1F

>  <GROUP>
n

$$$$
>  <COMPOUND>
O=C1c2ccccc2C(c2ccccc2)C1c1ccccc1 (stereo not drawn)

>  <GROUP>
n

$$$$
>  <COMPOUND>
CC(=O)Oc1cc(C)c(OC(C)=O)c(C)c1C

>  <GROUP>
n

$$$$

Task: Hey, what did the test say about O=C(O)c1cc(=O)[nH]c(=O)[nH]1 ?
Output: n

----------
system: A498 renal; assay: NCI-60 one-dose screen, 48 h (100 = growth as untreated, 0 = no growth, -100 = all killed); details: 10 µM unless noted
This is part of a sample that, as a whole, favours compounds with a hit. Of some 83,000 tested, about 20% had one in any assay.
Measured growth values are reported for all entries that follow.
Report the value in % with no unit label.

>  <MOLECULE>
CC(=O)c1cc2ccccc2o1

>  <TEST_RESULT>
104

$$$$

Task: Give reported growth for COc1cc(NCCCCCNC(C)C)c2ncccc2c1 (A498 renal)
Output: 77.2

Task: Give measured growth for CC1(C)CC(=O)NC1=O (A498 renal).
Output: 81.5

Task: Please respond with reported growth (system A498 renal) for c1ccc2c[n+](Cc3ccc4ccccc4n3)ccc2c1 .
Output: 79.4

Task: Look up A498 renal data: growth of COc1cc2oc3cc(=O)cc4oc(-c5ccccc5)cc(c2c2c1CCC(c1ccccc1)O2)c43 (centres undefined) , then report it.
Output: 114

Task: Report growth on A498 renal for this entry: CCn1c2ccc(N(C)C)cc2c2cc(N(C)C)ccc21
Output: 86.2

Task: Provide growth, tested on A498 renal, for O=[N+]([O-])c1ccc(NC(c2ccccc2)c2ccc3cccnc3c2O)cc1 (centres undefined) .
Output: 55.8

----------
test system: SK-MEL-5 melanoma; assay: NCI-60 one-dose screen, 48 h (100 = growth as untreated, 0 = no growth, -100 = all killed); conditions: 10 µM unless noted
This is part of a sample that, as a whole, favours compounds with a hit. Of some 83,000 tested, about 20% had one in any assay. The source made the active and inactive calls. How the source made its calls: active means growth percent below 10; inactive means the rest.
Below is a list of entries, each paired with its recorded growth value.

>  <CHEMICAL_SMILES>
Cc1ccc(S(=O)(=O)n2ccnc2)cc1

>  <growth>
99.9% (inactive)

$$$$

Task: Entry COc1ccc(COC=O)cc1 needs its growth filled in; supply it.
Output: 104% (inactive)

Task: Report measured growth; entry is CCCC(=O)Oc1ccc(CC)cc1
Output: 106% (inactive)

----------
test system: KM12 colon; assay: NCI-60 one-dose screen, 48 h; settings: 10 µM unless noted
The panel holds about 83,000 compounds, 20% with a hit somewhere; the sample as a whole holds those more often. Active and inactive are the calls of the source. How the source made its calls: active means growth percent below 10; inactive means the rest.
Please state which outcome applies, choosing from active, inactive

Recorded results for 5 compounds are shown here.
>  <COMPOUND>
N#CC(=S)Nc1ccc(Cl)c(Cl)c1

>  <GROUP>
active

$$$$
>  <COMPOUND>
CN(C=O)c1ccccc1

>  <GROUP>
inactive

$$$$
>  <COMPOUND>
CCN(C)c1ccccc1

>  <GROUP>
inactive

$$$$
>  <COMPOUND>
O=C(c1ccncc1)c1c(Cc2ccccc2)ccc2ccccc12

>  <GROUP>
inactive

$$$$
>  <COMPOUND>
CC(=O)/C(N=Nc1ccc(S(=O)(=O)c2ccc(N=N/C(C(C)=O)=C(/C)O)cc2)cc1)=C(\C)O

>  <GROUP>
inactive

$$$$

Task: Answer briefly: the call reported for Cc1c(Cl)cc(Cl)c(N)c1Cl in this assay.
Output: inactive

Task: Fill in: this test's call for CN1C2C=CC(=O)C1C1C(=O)N(c3ccccc3)C(=O)C12 (stereo not given) is ___
Output: inactive

Task: For CCOP(C)(=O)/C(Cc1ccc(OC)c(OC)c1)=N\O (stereo not given) , which call appears in the assay record?
Output: inactive

Task: Would you mind telling me which call this test gave CC1(C)CC(=O)NC1=O ?
Output: inactive

----------
System: LOX IMVI melanoma
Test: NCI-60 one-dose screen, 48 h (100 = growth as untreated, 0 = no growth, -100 = all killed)
Conditions: 10 µM unless noted
Description: Growth inhibition of the LOX IMVI human tumor cell line is measured as a screen for anti-cancer activity. Cells are grown in 96 well plates and exposed to the test compound for 48 hours. Compounds are tested at a single concentration, which is 10^-5 M for most compounds. The reported endpoint is percent growth (GI% or GIPRCNT), where numbers from 0 - 100% represent growth inhibition, and numbers from -100% - 0 represent cell death. For example, a value of 40 represents 60% growth inhibition. […]
The panel holds about 83,000 compounds, 20% with a hit somewhere; the sample as a whole holds those more often.
# maps each entry to its growth
Number in %, nothing else.

>  <COMPOUND>
COC(=O)C(Cc1cn(C(C)=O)c2ccccc12)P(=O)(OC)OC (stereo not drawn)

>  <growth / %>
92.7

$$$$

Task: Fill in reported growth for this entry: CS/C(=C\c1ccc(C(=O)c2ccc(C)cc2)n1C)S(C)=O (stereo not drawn)
Output: 99.4

Task: Retrieve growth measured for O=C(c1ccccc1)C1(Br)CCCCC1 and print it.
Output: 86.7

----------
Tested on: U251 CNS
Test: NCI-60 one-dose screen, 48 h
Details: 10 µM unless noted
Protocol: Growth inhibition of the U251 human tumor cell line is measured as a screen for anti-cancer activity. Cells are grown in 96 well plates and exposed to the test compound for 48 hours. Compounds are tested at a single concentration, which is 10^-5 M for most compounds. The reported endpoint is percent growth (GI% or GIPRCNT), where numbers from 0 - 100% represent growth inhibition, and numbers from -100% - 0 represent cell death. For example, a value of 40 represents 60% growth inhibition. […]
About 83,000 compounds went through this panel and 20% of them were active in at least one assay; those are over-represented in the sample as a whole. Calls of active or inactive are those of the source. How the source made its calls: active means growth percent below 10; inactive means the rest.
Select the correct class. Options are Yes = active, No = inactive and nothing else.

>  <COMPOUND>
CC(=O)c1cccc(OC(=O)c2ccccc2)c1

>  <GROUP>
No

$$$$
>  <COMPOUND>
O=c1[nH]c(=S)[nH]n1C(=S)n1[nH]c(=S)[nH]c1=O

>  <GROUP>
No

$$$$

Task: Tell me the recorded outcome of this test for CC(=O)/C(N=Nc1ccc(S(=O)(=O)c2ccc(N=N/C(C(C)=O)=C(/C)O)cc2)cc1)=C(\C)O .
Output: No

Task: Hello, I am checking results. What call was entered for COC(=O)C(Cc1cn(C(C)=O)c2ccccc12)P(=O)(OC)OC (configuration not stated) ?
Output: No

----------
system: HCC-2998 colon; assay: NCI-60 one-dose screen, 48 h (100 = growth as untreated, 0 = no growth, -100 = all killed); conditions: 10 µM unless noted
This is part of a sample that, as a whole, favours compounds with a hit. Of some 83,000 tested, about 20% had one in any assay.
READOUT_NAME: growth (%)
Answer in %, number only, no unit symbol.

Worked cases, growth given:
>  <MOLECULE>
COc1cc2oc3cc(=O)cc4oc(-c5ccccc5)cc(c2c2c1CCC(c1ccccc1)O2)c43 (centres undefined)

>  <READOUT_NAME>
growth

>  <TEST_RESULT>
60.7

$$$$
>  <MOLECULE>
CC(=O)Oc1ccc(C(c2ccc(OC(C)=O)cc2)c2ccccn2)cc1

>  <READOUT_NAME>
growth

>  <TEST_RESULT>
70.5

$$$$
>  <MOLECULE>
NNc1ncnc2cccc(Cl)c12

>  <READOUT_NAME>
growth

>  <TEST_RESULT>
104

$$$$
>  <MOLECULE>
CC(C)(C)OC(=O)CC1(O)CCCCC1

>  <READOUT_NAME>
growth

>  <TEST_RESULT>
106

$$$$
>  <MOLECULE>
COCCNC(C)=O

>  <READOUT_NAME>
growth

>  <TEST_RESULT>
118

$$$$

Task: Retrieve growth measured for O=P(O)(O)OC1C(OP(=O)(O)O)C(OP(=O)(O)O)C(OP(=O)(O)O)C(OP(=O)(O)O)C1OP(=O)(O)O.[Cu+2] (centres undefined) and print it.
Output: 96.3

Task: Identify measured growth associated with CC(=O)Nc1cscc1NC(C)=O
Output: 94.1

Task: Give the measured growth for CCCCC/C(C)=N\NC(N)=S
Output: 97.8

Task: Return reported growth. Input molecule: Nc1ccccc1SC(CC(=O)c1ccccc1)c1cccc([N+](=O)[O-])c1 (centres undefined)
Output: 110

Task: Look up and report measured growth for this entry: CCCCCCC(C)CC1=C(O)c2ccccc2C(=O)C1=O (centres undefined)
Output: 54.9
